pKi for assorted compounds
biological target: strychnine insensitive glycine binding site located on the NMDA receptor complex (Rattus norvegicus); construct: from tissue; test: affinity for strychnine insensitive glycine binding site (procedure of Kishimoto H. et al.); conditions: procedure of Kishimoto H. et al. J. Neurochem 1981, 37, 1015-1024
reportedEndpoint: pKi

In [3]: df
Out[3]:
                                   compound  reportedendpoint  result
0  CCOc1ccc(NC(=O)/C=C/c2c(C(=O)O)[nH]c3cc(Cl)cc(Cl)c23)cc1               pKi     8.3
1  COc1ccc(NC(=O)/C=C/c2c(C(=O)O)[nH]c3cc(Cl)cc(Cl)c23)cc1OC               pKi     8.1
2  O=C(/C=C/c1c(C(=O)O)[nH]c2cc(Cl)cc(Cl)c12)Nc1ccccc1O               pKi     8.4
3  O=C(/C=C/c1c(C(=O)O)[nH]c2cc(Cl)cc(Cl)c12)Nc1ccc(F)cc1F               pKi     8.3
4  O=C(/C=C/c1c(C(=O)O)[nH]c2cc(Cl)cc(Cl)c12)Nc1cc([N+](=O)[O-])ccc1O               pKi     8.0
